# ASSAY METHOD TEXT: APR_HepG2_P-H2AX_72hr: Apredica 72-hour HepG2 Assay for H2AX Phosphorylation (AID 2282916);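 note: phospho-histone H2A.x immunostain intensity per cell marking DNA damage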
# RUN PARAMETERS: imaging, actives raise or lower the signal
Active and inactive are the calls of the source. Rule for the calls: active = hit-call score of the fitted dose curve at least 0.9, where 1 is the maximum; inactive = score below 0.9.
METRIC NAME: AC50

Examples with their reported AC50 follow.
- COMPOUND: "CC(=O)OC/C=C(\\C)CCC=C(C)C"
  RECORDED RESULT: "inactive"
- COMPOUND: "CC1(C)CC(N=C=O)CC(C)(CN=C=O)C1 (stereo not given)"
  RECORDED RESULT: "101 µM (active)"
- COMPOUND: "NCCO"
  RECORDED RESULT: "inactive"
- COMPOUND: "c1cc(-c2ccncc2)ccn1"
  RECORDED RESULT: "inactive"

Exercise: Which AC50 value belongs to Oc1ccc2ccccc2c1N=Nc1ccccc1 ?
Solution: 2.49 µM (active)
